# systemName: T1, Soluble, human SIRPβ1-Fc isoform 1 (O00241) (human, UniProt O00241 30-371, limits assumed)
# T1 construct: Whole entry named; also called human SIRPβ1 isoform 1
# T1 sequence (O00241 30-371 limits assumed, one chain of several): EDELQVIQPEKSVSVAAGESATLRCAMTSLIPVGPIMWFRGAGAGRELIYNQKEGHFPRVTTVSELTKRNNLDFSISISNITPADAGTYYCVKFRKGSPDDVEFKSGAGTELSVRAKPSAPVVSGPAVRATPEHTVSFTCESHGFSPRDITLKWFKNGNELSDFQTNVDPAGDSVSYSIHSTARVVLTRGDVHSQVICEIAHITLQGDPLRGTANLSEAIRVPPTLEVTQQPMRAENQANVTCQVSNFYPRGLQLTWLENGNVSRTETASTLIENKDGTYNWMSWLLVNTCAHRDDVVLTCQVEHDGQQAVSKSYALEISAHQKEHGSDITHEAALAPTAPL
# testName: ELISA, antigen coated
Could you mark each record fulfilled if its EC50 falls strictly under 0.03 nM, and not fulfilled if it equals or exceeds it?

Solved entries:
{"columns": ["binder", "assignedLabel"],
 "data": [
  ["SB-8-13 (antibody, V domains shown, IgG) VH: QVQLQESGPGLVKPSETLSLTCAVSGYSISAHYYWGWIRQPPGKGLEWIGSIFHSGHTYYNPSLKSRVTISVDTSKNQFSLKLSSVTAADTAVYYCARGGAMTPAGMDVWGQGTTVTVSS VL: EIVMTQSPGTLSLSPGERATLSCRASQSVSSSYLAWYQQKPGQAPRLLIYGASNRATGIPDRFSGSGSGTDFTLTISRLEPEDFAVYYCQQVYSSPYTFGGGTKVEIK", "fulfilled"],
  ["SB-8 (antibody, V domains shown, IgG; also called SB-8 (p)) VH: QVQLQESGPGLVKPSETLSLTCAVSGYSISSGYYWGWIRQPPGKGLEWIGSIYHSGSTYYNPSLKSRVTISVDTSKNQFSLKLSSVTAADTAVYYCARGGAMTPAGMDVWGQGTTVTVSS VL: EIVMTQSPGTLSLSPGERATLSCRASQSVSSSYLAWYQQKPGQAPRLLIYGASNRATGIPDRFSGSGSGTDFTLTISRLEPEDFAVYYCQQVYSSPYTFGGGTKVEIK", "fulfilled"],
  ["SB-1-2 (antibody, V domains shown, IgG) VH: QVQLVESGGGVVQPGRSLRLSCAASGFTFGSFGMNWVRQAPGKGLEWVSAITASGGSTFYADSVKGRFTISRDNSKNTLYLQMNSLRAEDTAVYYCAKDFTEVVGWLGMDVWGQGTTVTVSS VL: EIVMTQSPGTLSLSPGERATLSCRASQSVSSSYLAWYQQKPGQAPRLLIYGASSRATGIPDRFSGSGSGTDFTLTISRLEPEDFAVYYCQLLGSSPRTFGGGTKVEIK", "not fulfilled"],
  ["SB-40 (antibody, V domains shown, IgG; also called SB-40 (p)) VH: QVQLVQSGAEVKKPGASVKVSCKASGYTFTSYYMSWVRQAPGQGLEWMGIINPSGGSTSYAQKFQGRVTMTRDTSTSTVYMELSSLRSEDTAVYYCARDTGEYSYSPHGMDVWGQGTTVTVSS VL: EIVLTQSPATLSLSPGERATLSCRASQSVSSYLAWYQQKPGQAPRLLIYDSSNRATGIPARFSGSGSGTDFTLTISSLEPEDFAVYYCQQRDEHPPWTFGGGTKVEIK", "not fulfilled"],
  ["SB-40-21 (antibody, V domains shown, IgG) VH: QVQLVQSGAEVKKPGASVKVSCKASGYTFTSYYMVWVRQAPGQGLEWMGIINPSSGDTNYAQKFQGRVTMTRDTSISTAYMELSRLRSDDTAVYYCARDTGEYSYSPHGMDVWGQGTTVTVSS VL: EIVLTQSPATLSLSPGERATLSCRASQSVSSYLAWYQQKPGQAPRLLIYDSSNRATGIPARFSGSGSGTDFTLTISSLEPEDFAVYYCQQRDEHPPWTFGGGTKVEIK", "fulfilled"]
]}

EC50 strictly < 0.03 nM for this binder? SB-2-7 (antibody, V domains shown, IgG) VH: EVQLLESGGGLVQPGGSLRLSCAASGFTFARYGMHWVRQAPGKGLEWVSAISGLAGPTYADSVKGRFTISRDNSKNTLYLQMNSLRAEDTAVYYCARDQTAAAAIWGMDVWGQGTTVTVSS VL: EVVLTQSPGTLSLSPGERATLSCRASQSVSSSYLAWYQQKPGQAPRLLIYGASSRATGIPDRFSGSGSGTDFTLTISRLEPEDFAVYYCQQSSSHPFTFGGGTKVEIK
fulfilled

Here's an entry: SB-2 (antibody, V domains shown, IgG; also called SB-2 (p)) VH: QVQLVESGGGVVQPGRSLRLSCAASGFTFSSYGMNWVRQAPGKGLEWVAVIWYDGSNKYYADSVKGRFTISRDNSKNTLYLQMNSLRAEDTAVYYCARDQTAAAAIWGMDVWGQGTTVTVSS VL: EIVLTQSPGTLSLSPGERATLSCRASQSVSSSYLAWYQQKPGQAPRLLIYGASSRATGIPDRFSGSGSGTDFTLTISRLEPEDFAVYYCQQSSSHPFTFGGGTKVEIK . Is its EC50 below 0.03 nM?
not fulfilled

Cited source for all entries: patent US20250026827A1
